The reader will find reported EC50 values listed item by item below.
# target_desc: NL20 human bronchial epithelial cells expressing human Z-AAT (Homo sapiens, UniProt P01009, E366K)
# Construct: doxycycline added with compounds)
# Sequence (P01009 25-418 E366K): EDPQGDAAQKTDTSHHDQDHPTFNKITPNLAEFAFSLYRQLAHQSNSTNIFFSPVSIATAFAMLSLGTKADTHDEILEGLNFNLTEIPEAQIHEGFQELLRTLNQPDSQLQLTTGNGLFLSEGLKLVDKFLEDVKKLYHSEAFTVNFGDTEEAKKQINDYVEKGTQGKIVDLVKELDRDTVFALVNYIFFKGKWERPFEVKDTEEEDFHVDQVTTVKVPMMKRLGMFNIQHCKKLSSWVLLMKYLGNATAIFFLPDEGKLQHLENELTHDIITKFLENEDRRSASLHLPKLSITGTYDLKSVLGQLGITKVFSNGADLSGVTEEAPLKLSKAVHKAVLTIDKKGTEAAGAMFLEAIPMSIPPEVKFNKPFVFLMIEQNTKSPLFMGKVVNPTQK
# protocol_description: AAT Function Assay (MSD Assay NL20-SI Cell Line)
# test_parameters: read-out: NL20 Functional EC50

compound	measured_property	val
Cc1cc(-n2c(C(C)(C)COC(=O)NC3CCOC3)c(-c3ccc(C(=O)O)cc3)c3c(O)c(F)ccc32)ccc1F (stereo not drawn)	EC50	500 to 2000 nM

Q: For the compound `O=C(O)c1cccc(-c2c(C3CCOCC3)n(-c3ccc(F)cc3)c3ccc(F)cc23)c1` , report EC50.
Result: 500 to 2000 nM

Q: For the compound `COc1cc(-c2c(C3(CC#N)CCC3)n(-c3ccc(F)c(C)c3)c3cc(F)c(F)c(O)c23)ccc1C(=O)O` , report EC50.
Result: < 500 nM

Q: For the compound `COc1cc(-n2c(C(C)(C)CC#N)c(-c3ccc(C(=O)O)c(F)c3F)c3c(O)cc(F)cc32)ccc1F` , report EC50.
Result: 500 to 2000 nM

Q: For the compound `Cc1cc(-n2c(CC(C)(C)O)c([C@H]3C[C@H](C(=O)O)C3)c3c(O)cccc32)ccc1F` , report EC50.
Result: > 2000 nM

Q: For the compound `CCC1(c2c(-c3ccc(C(=O)O)cc3)c3c(O)c(F)c(F)cc3n2-c2ccc(F)c(C)c2)COC1` , report EC50.
Result: < 500 nM

Q: For the compound `O=C(O)c1cccc(-c2c(C3CCOCC3)n(-c3ccc(F)cc3)c3cc(F)cc(O)c23)c1` , report EC50.
Result: < 500 nM

Q: For the compound `CC(C)c1c(-c2ccc(C(=O)O)cc2)c2c(O)cnc(Cl)c2n1-c1ccc(F)cc1` , report EC50.
Result: 500 to 2000 nM

Q: For the compound COC(=O)N1CCCC(c2c(-c3ccc(C(=O)O)cc3)c3c(O)cccc3n2-c2ccc(F)cc2)C1 (stereo not drawn) , report EC50.
Result: 500 to 2000 nM

====

# target_desc: NL20 human bronchial epithelial cells expressing human Z-AAT (Homo sapiens, UniProt P01009, E366K)
# Construct: doxycycline added with compounds)
# protocol_description: AAT Function Assay (MSD Assay NL20-SI Cell Line)
# test_parameters: read-out: NL20 Functional EC50
The reader will find reported EC50 values listed item by item below.

A selection of reference data follows.
molecule	EC50
NC(=O)c1ncc(-c2c(C3CCOCC3)n(-c3ccc(F)cc3)c3cccc(O)c23)cc1F [Compound 392]	500 to 2000 nM
O=C(O)c1ccc(-c2c(C3CCOCC3)n(-c3ccc(F)c(Cl)c3)c3cccc(O)c23)c(F)c1 [Compound 20]	< 500 nM
COc1cc(-n2c(C3(CC#N)CCC3)c(-c3ccc(C(=O)O)cc3)c3c(O)cccc32)ccc1F [Compound 225]	< 500 nM
O=C(O)c1ccc(-c2c(C3CCCOCC3)n(-c3ccc(F)c(F)c3)c3cc(F)cc(O)c23)cc1 (stereo not drawn) [Compound 270]	< 500 nM
Cc1cc(-n2c(C3CCOCC3)c([C@H]3C[C@@H](C(=O)O)C3)c3cc(F)ccc32)ccc1F [Compound W15]	> 2000 nM

Q: For the molecule COc1ccc(-n2c(C(C)(C)CC#N)c(-c3ccc(C(=O)O)cc3)c3c(O)cc(F)cc32)cc1C [Compound 411] , report EC50.
Result: 500 to 2000 nM
